System: NCI/ADR-RES ovarian
Assay: NCI-60 one-dose screen, 48 h (100 = growth as untreated, 0 = no growth, -100 = all killed)
Conditions: 10 µM unless noted
The panel holds about 83,000 compounds, 20% with a hit somewhere; the sample as a whole holds those more often.
Param threshold (90%) applies to growth; output satisfied when value >= threshold, not satisfied when value < threshold.

{"MOLECULE": "O=S(=O)(NCCCNc1nccc(-c2c(-c3ccc(F)c(O)c3)nc3sccn23)n1)c1ccc(F)cc1", "ASSIGNED CLASS": "not satisfied"}
{"MOLECULE": "COc1cc2nc(-c3ccc(C(F)(F)F)cc3)cc(OCCCN3CCCCC3)c2cc1OC", "ASSIGNED CLASS": "not satisfied"}
{"MOLECULE": "CCCCCN1C=C/C(=C\\C(=O)N(C)c2ccc(Br)cc2)c2ccccc21", "ASSIGNED CLASS": "satisfied"}
{"MOLECULE": "O=C(/C=C\\c1ccc(OCCCCCC[P+](c2ccccc2)(c2ccccc2)c2ccccc2)cc1)c1ccc2c(c1)OCCO2", "ASSIGNED CLASS": "not satisfied"}
{"MOLECULE": "CCCOc1nc(SCCC)nc2c1cnn2-c1ccccc1", "ASSIGNED CLASS": "satisfied"}
{"MOLECULE": "c1ccc(-c2nnc(Nc3ccc4c(c3)OCCO4)o2)c(NCc2ccncc2)c1", "ASSIGNED CLASS": "not satisfied"}
{"MOLECULE": "CCCCCCCC(=O)Nc1nc2[nH]c(CN3CCN(Cc4cccc(I)c4)CC3)c(CN3CCN(Cc4cccc(I)c4)CC3)c2c(=O)[nH]1", "ASSIGNED CLASS": "not satisfied"}
{"MOLECULE": "CC1NC(=S)NC(=O)/C1=C/c1cc(=O)oc2c1ccc1ccccc12 (stereo not drawn)", "ASSIGNED CLASS": "satisfied"}

q: Does CC(=O)OC1CCC2(C)C(CCC3C4CC=C(C(C)=O)C4(C)OC(=O)CC32)C1 (stereo not drawn) have a reported growth of at least 90%?
a: not satisfied

q: Does COc1ccc(/C=C/C(=O)c2ccc(OC)c(OC)c2)cc1O have a reported growth of at least 90%?
a: not satisfied

q: Does CCCCCCCCCCCCCCCC(=O)OC[C@@]1(O)C[C@@]23CC[C@@H]4C(C)(C)[C@H](O)CC[C@@]4(C)[C@@H]2CC[C@H]1C3 have a reported growth of at least 90%?
a: satisfied

q: Does C/C(=C(/c1ccccc1)c1ccc(OCC(O)CNCCN2CCOCC2)cc1)c1ccccc1 (stereo not drawn) have a reported growth of at least 90%?
a: not satisfied

q: Does COc1ccc(/C(C)=N/NC(=O)CSc2nc3ccccc3c(=O)n2Cc2ccc(S(N)(=O)=O)cc2)c(OC)c1 have a reported growth of at least 90%?
a: satisfied

q: Does C[C@]12CCc3nc(Nc4cccc(O)c4)sc3C1=CC[C@@H]1[C@@H]2CC[C@]2(C)/C(=N\NC(N)=S)CC[C@@H]12 have a reported growth of at least 90%?
a: not satisfied

q: Does CCC(C)N(CCNc1cc(OC)cc2cccnc12)CCC(C)C (stereo not drawn) have a reported growth of at least 90%?
a: not satisfied

q: Does Clc1nc(Nc2ccccc2)nc(Nc2ccccc2)n1 have a reported growth of at least 90%?
a: satisfied

q: Does N#Cc1ccc(-c2ccc3c(c2)NC(=O)/C3=C\c2ccc[nH]2)cc1 have a reported growth of at least 90%?
a: satisfied

q: Does CO[C@@H]1[C@H](N(C)C(=O)c2ccccc2)C[C@@H]2O[C@]1(C)n1c3ccccc3c3c4c(c5c6ccccc6n2c5c31)C(=O)NC4=O have a reported growth of at least 90%?
a: not satisfied

q: Does Nc1ccccc1NC(=O)c1ccc(CN2CCC/C(=C\c3cccc(Cl)c3)C2=O)cc1 have a reported growth of at least 90%?
a: not satisfied

q: Does CC(C)C1C2=C(NCCN1C(=O)Cc1ccccc1)C(C)(C)N(Cc1ccccc1)C2=O (stereo not drawn) have a reported growth of at least 90%?
a: satisfied

q: Does CCCCCCN(C)Cc1ccc(OCCOc2ccc(CN(C)CCCCCC)cc2)cc1 have a reported growth of at least 90%?
a: not satisfied

q: Does O=C(Nc1ccc2cc3ccc(NC(=O)NC4CCCCC4)cc3nc2c1)NC1CCCCC1 have a reported growth of at least 90%?
a: satisfied
